Test: Pharmacokinetic evaluation following intravenous and oral administration in rats
Assay type: in vivo
Conditions: male, Sprague-Dawley, plasma, 5 mg/kg; rat; po 2 mg/mL at 2.5 mL/kg vs iv 1 mg/mL at 1.0 mL/kg, dose-normalized; read-out: F (%) oral bioavailability
Assign t whenever bioavailability does not fall below 40%; assign f whenever it does.

Decide: is the reported value of bioavailability for CC(C)(C)/[N+]([O-])=C/c1ccc(S(=O)(=O)Nc2cccnc2)cc1 [Compound 26] equal to or greater than 40%?
t

Decide: is the reported value of bioavailability for CC(C)(C)/[N+]([O-])=C/c1ccc(S(=O)(=O)Nc2ccc(F)cc2)cc1 [Compound 25] equal to or greater than 40%?
f

Decide: is the reported value of bioavailability for CC(C)(C)/[N+]([O-])=C/c1ccc(S(=O)(=O)N2CCCCC2)cc1 [Compound 28] equal to or greater than 40%?
f

Decide: is the reported value of bioavailability for CC(C)S(=O)(=O)c1ccccc1/C=[N+](\[O-])C(C)(C)C [Compound 69] equal to or greater than 40%?
t

Decide: is the reported value of bioavailability for CC(C)(C)/[N+]([O-])=C/c1ccc(C(=O)O)cc1 [Compound 13, N-tert-Butyl-C-(4-carboxy-phenyl)nitrone] equal to or greater than 40%?
t

Decide: is the reported value of bioavailability for CC(C)(C)/[N+]([O-])=C/c1ccc(S(C)(=O)=O)nc1 [Compound 80] equal to or greater than 40%?
t

Decide: is the reported value of bioavailability for CN(c1ccccc1)S(=O)(=O)c1ccc(/C=[N+](\[O-])C(C)(C)C)cc1 [Compound 54] equal to or greater than 40%?
f

Decide: is the reported value of bioavailability for CC(C)(C)/[N+]([O-])=C/c1ccc(S(=O)(=O)N2CCOCC2)cc1 [Compound 23] equal to or greater than 40%?
t

---

Assay: Solubility measurement at pH 7.4
Assay type: physicochemical
Conditions: aqueous buffer, thermodynamic from solid; phosphate buffer pH 7.4, room temperature; read-out: Solubility @ pH 7.4 (μg/mL)
Task for the reader: assign each of the following compounds its reported solubility.

Briefly, solubility measured for O=S(=O)(c1ccccc1/C=[N+](\[O-])Cc1ccccc1)N1CCCCC1 [Compound 35] : 38.4 µg/mL

Briefly, solubility measured for CN1CCN(S(=O)(=O)c2ccccc2/C=[N+](\[O-])C(C)(C)C)CC1 [Compound 38] : > 632 µg/mL

Briefly, solubility measured for O=S(=O)(c1ccccc1/C=[N+](\[O-])C1CCCCC1)N1CCCc2ccccc21 [Compound 45] : 1.42 µg/mL

Briefly, solubility measured for CC(C)(C)/[N+]([O-])=C/c1ccc(C(N)=O)cc1 [Compound 19] : 3130 µg/mL

Briefly, solubility measured for O=S(=O)(c1ccccc1/C=[N+](\[O-])C1CCCCC1)N1CCCCC1 [Compound 34] : 500 µg/mL

---

Test: Pharmacokinetic evaluation following intravenous and oral administration in rats
Assay type: in vivo
Conditions: male, Sprague-Dawley, plasma, 5 mg/kg; rat; oral gavage, 2 mg/mL at 2.5 mL/kg
Task for the reader: assign each of the following compounds its reported Tmax.
Quick note: give the figure in min, leave out the unit.

Briefly, Tmax measured for "CC(C)(C)/[N+]([O-])=C/c1ccc(S(=O)(=O)N2CCCCC2)cc1" : 64.8

Briefly, Tmax measured for "CC(C)S(=O)(=O)c1ccc(/C=[N+](\[O-])C(C)(C)C)cc1" : 29.4

Briefly, Tmax measured for "CC(C)S(=O)(=O)c1ccc(/C=[N+](\[O-])C(C)(C)C)c(S(=O)(=O)C(C)C)c1" : 14.4

Briefly, Tmax measured for "CCN(CC)S(=O)(=O)c1ccccc1/C=[N+](\[O-])C(C)(C)C" : 4.98

Briefly, Tmax measured for "CC(C)(C)/[N+]([O-])=C/c1ccc(C(=O)O)cc1" : 19.8

Briefly, Tmax measured for "CC(C)(C)/[N+]([O-])=C/c1ccccc1S(C)(=O)=O" : 60

Briefly, Tmax measured for "CC(C)(C)/[N+]([O-])=C/c1ccc(S(=O)(=O)N2CCOCC2)cc1" : 25.2

Briefly, Tmax measured for "CN(c1ccccc1)S(=O)(=O)c1ccc(/C=[N+](\[O-])C(C)(C)C)cc1" : 15

Briefly, Tmax measured for "CC(C)(C)/[N+]([O-])=C/c1ccc(S(N)(=O)=O)cc1" : 22.2

Briefly, Tmax measured for "CC(C)(C)/[N+]([O-])=C/c1ccc(S(C)(=O)=O)nc1" : 30

Briefly, Tmax measured for "CC(C)(C)/[N+]([O-])=C/c1ccc(S(=O)(=O)Nc2ccc(F)cc2)cc1" : 15

Briefly, Tmax measured for "CC(C)(C)/[N+]([O-])=C/c1ccc(S(=O)(=O)N2CCCC2)cc1" : 11.4

Briefly, Tmax measured for "CCS(=O)(=O)c1ccc(/C=[N+](\[O-])C(C)(C)C)c(S(=O)(=O)CC)c1" : 39.6

Briefly, Tmax measured for "CC(C)(C)/[N+]([O-])=C/c1ccc(S(C)(=O)=O)cc1S(C)(=O)=O" : 45

Briefly, Tmax measured for "CN1CCN(S(=O)(=O)c2ccc(/C=[N+](\[O-])C(C)(C)C)cc2)CC1" : 14.4

Briefly, Tmax measured for "CC(C)(C)NS(=O)(=O)c1ccc(/C=[N+](\[O-])C2CCCCC2)cc1" : 8.4

Briefly, Tmax measured for "CC(C)(C)/[N+]([O-])=C/c1ccc(S(C)(=O)=O)cc1" : 24.6

Briefly, Tmax measured for "CC(C)(C)NS(=O)(=O)c1ccccc1/C=[N+](\[O-])C(C)(C)C" : 15

Briefly, Tmax measured for "CC(C)(C)/[N+]([O-])=C/c1cccnc1S(C)(=O)=O" : 85.2

Briefly, Tmax measured for "CC(C)(C)NC(=O)c1ccc(/C=[N+](\[O-])C(C)(C)C)cc1" : 25.2

Briefly, Tmax measured for "CC(C)(C)/[N+]([O-])=C/c1cc2ccccc2nc1S(C)(=O)=O" : 11.4

Briefly, Tmax measured for "CC(C)(C)/[N+]([O-])=C/c1ccc(C(F)(F)F)cc1S(C)(=O)=O" : 19.2

Briefly, Tmax measured for "CC(C)(C)/[N+]([O-])=C/c1ccccc1S(=O)(=O)N1CCCCC1" : 4.98

Briefly, Tmax measured for "CS(=O)(=O)c1ncccc1/C=[N+](\[O-])Cc1ccccc1" : 11.4

Briefly, Tmax measured for "CC(C)(C)/[N+]([O-])=C/c1ccc(C(N)=O)cc1" : 19.8

Briefly, Tmax measured for "CCNS(=O)(=O)c1ccc(/C=[N+](\[O-])C(C)(C)C)cc1" : 12

Briefly, Tmax measured for "CCS(=O)(=O)c1ccccc1/C=[N+](\[O-])C(C)(C)C" : 59.4

Briefly, Tmax measured for "CC(C)S(=O)(=O)c1ccccc1/C=[N+](\[O-])C(C)(C)C" : 11.4

Briefly, Tmax measured for "CC(C)(C)/[N+]([O-])=C/c1ccc(S(=O)(=O)Nc2cccnc2)cc1" : 25.2

Briefly, Tmax measured for "CC(C)(C)/[N+]([O-])=C/c1ccc(S(=O)(=O)C2CCCC2)cc1" : 16.8

Briefly, Tmax measured for "CCS(=O)(=O)c1ccc(/C=[N+](\[O-])C(C)(C)C)cc1" : 79.8

---

Assay: Pharmacokinetic evaluation following intravenous and oral administration in rats
Assay type: in vivo
Conditions: male, Sprague-Dawley, rat, plasma, intravenous, 1 mg/kg; read-out: T1/2 elimination half life (converted)
Task for the reader: assign each of the following compounds its reported half-life.
Quick note: give the figure in min, leave out the unit.

Briefly, half-life measured for "CC(C)(C)/[N+]([O-])=C/c1ccc(C(N)=O)cc1" : 218

Briefly, half-life measured for "CC(C)S(=O)(=O)c1ccccc1/C=[N+](\[O-])C(C)(C)C" : 38.4

Briefly, half-life measured for "CC(C)(C)/[N+]([O-])=C/c1ccccc1S(C)(=O)=O" : 143

Briefly, half-life measured for "CC(C)(C)/[N+]([O-])=C/c1ccc(S(C)(=O)=O)nc1" : 103

Briefly, half-life measured for "CN1CCN(S(=O)(=O)c2ccc(/C=[N+](\[O-])C(C)(C)C)cc2)CC1" : 34.2

Briefly, half-life measured for "CC(C)(C)/[N+]([O-])=C/c1ccc(S(=O)(=O)C2CCCC2)cc1" : 45.6

Briefly, half-life measured for "CC(C)(C)/[N+]([O-])=C/c1ccc(S(=O)(=O)N2CCCC2)cc1" : 17.4

Briefly, half-life measured for "CC(C)(C)/[N+]([O-])=C/c1ccc(S(C)(=O)=O)cc1S(C)(=O)=O" : 99.6

Briefly, half-life measured for "CC(C)(C)/[N+]([O-])=C/c1ccccc1S(=O)(=O)N1CCCCC1" : 32.4

---

Task for the reader: assign each of the following compounds its reported Vd.
Test: Pharmacokinetic evaluation following intravenous and oral administration in rats
Type: in vivo
Conditions: male, Sprague-Dawley, plasma, 1 mg/kg; rat; intravenous administration, 1 mg/mL at 1.0 mL/kg; read-out: Vd (volume of distribution)
Quick note: give the figure in L/kg, leave out the unit.

Briefly, Vd measured for "CC(C)(C)/[N+]([O-])=C/c1ccc(S(=O)(=O)C2CCCC2)cc1" : 1.66

Briefly, Vd measured for "CC(C)(C)/[N+]([O-])=C/c1cc2ccccc2nc1S(C)(=O)=O" : 10.7

Briefly, Vd measured for "CC(C)(C)/[N+]([O-])=C/c1ccc(S(=O)(=O)N2CCCC2)cc1" : 0.97

Briefly, Vd measured for "CC(C)(C)/[N+]([O-])=C/c1ccc(S(C)(=O)=O)nc1" : 0.52

Briefly, Vd measured for "CN1CCN(S(=O)(=O)c2ccc(/C=[N+](\[O-])C(C)(C)C)cc2)CC1" : 1.83

Briefly, Vd measured for "CC(C)(C)/[N+]([O-])=C/c1ccc(S(=O)(=O)Nc2ccc(F)cc2)cc1" : 1.12

Briefly, Vd measured for "CC(C)(C)NS(=O)(=O)c1ccccc1/C=[N+](\[O-])C(C)(C)C" : 1.39

Briefly, Vd measured for "CC(C)(C)/[N+]([O-])=C/c1ccc(S(C)(=O)=O)cc1S(C)(=O)=O" : 0.45

Briefly, Vd measured for "CC(C)(C)/[N+]([O-])=C/c1ccc(S(=O)(=O)N2CCCCC2)cc1" : 19.9

Briefly, Vd measured for "CCS(=O)(=O)c1ccccc1/C=[N+](\[O-])C(C)(C)C" : 0.63

Briefly, Vd measured for "CC(C)(C)/[N+]([O-])=C/c1ccc(S(C)(=O)=O)cc1" : 0.53

Briefly, Vd measured for "CCNS(=O)(=O)c1ccc(/C=[N+](\[O-])C(C)(C)C)cc1" : 2.58

Briefly, Vd measured for "CCS(=O)(=O)c1ccc(/C=[N+](\[O-])C(C)(C)C)c(S(=O)(=O)CC)c1" : 0.67

Briefly, Vd measured for "CN(c1ccccc1)S(=O)(=O)c1ccc(/C=[N+](\[O-])C(C)(C)C)cc1" : 3.21

Briefly, Vd measured for "CC(C)S(=O)(=O)c1ccccc1/C=[N+](\[O-])C(C)(C)C" : 0.76

Briefly, Vd measured for "CC(C)(C)/[N+]([O-])=C/c1ccc(C(N)=O)cc1" : 0.74

Briefly, Vd measured for "CC(C)S(=O)(=O)c1ccc(/C=[N+](\[O-])C(C)(C)C)c(S(=O)(=O)C(C)C)c1" : 0.98

Briefly, Vd measured for "CCN(CC)S(=O)(=O)c1ccccc1/C=[N+](\[O-])C(C)(C)C" : 4.15
